biological target: HLA-A*02:06 molecule (product of HLA-A*02:06 gene) (human); test: flow cytometry, RA2.6 cells, peptide dilution series, BB7.2 staining
Measurement Name: Binding Experiment Data (log Kd)

{"columns": ["Binder", "Value"],
 "data": [
  ["ITRARFEEL (modifications not checked) [peptide … (SEQ ID NO: 10)]", -5.58],
  ["MVLTKMKEI (modifications not checked) [peptide … (SEQ ID NO: 6)]", -5.53],
  ["NLLGRFELS (modifications not checked) [peptide … (SEQ ID NO: 11)]", -5.18],
  ["SVTNAVITV (modifications not checked) [peptide … (SEQ ID NO: 15)]", -5.59],
  ["KLLQDFFNG (modifications not checked) [peptide … (SEQ ID NO: 4)]", -5.27],
  ["AMTKDNNLL (modifications not checked) [peptide … (SEQ ID NO: 9)]", -4.28],
  ["NQPGVLIQV (modifications not checked) [peptide … (SEQ ID NO: 14)]", -6.42],
  ["YAFNMKSAV (modifications not checked) [peptide … (SEQ ID NO: 13)]", -5.02]
]}
